Ref: patent EP3269373A1

Experiment: Embryonic (embryo-fetal) development study in rabbits
Format: in vivo
Conditions: female, rabbit, in vivo, po, pregnant rabbits, oral gavage once daily, Day 6 to Day 19 of gestation; read-out: NOAEL for maternal toxicity
Attribute Measured: NOAEL (mg/kg)

molecule="CN(CCC(=O)O)C(=O)c1ccc2c(c1)CC[C@@H]1[C@@H]2CC[C@]2(C)C(c3cncc(F)c3)=CC[C@@H]12 [AKR1C3 inhibitor]" attribute_measured=NOAEL value_measured=70

###

Experiment: Embryonic (embryo-fetal) development study in rabbits
Type: in vivo
Conditions: female, rabbit, in vivo, po, pregnant rabbits, oral gavage once daily, Day 6 to Day 19 of gestation; doses 0, 5, 20, 70 mg/kg; read-out: NOAEL for dev. toxicity
Attribute Measured: NOAEL (mg/kg)

molecular_string=CN(CCC(=O)O)C(=O)c1ccc2c(c1)CC[C@@H]1[C@@H]2CC[C@]2(C)C(c3cncc(F)c3)=CC[C@@H]12 attribute_measured=NOAEL uom=mg/kg value_measured=5

###

Test: Embryonic (embryo-fetal) development study in rats
Format: in vivo
Conditions: female, rat, in vivo, po, pregnant rats, oral gavage once daily, Day 6 to Day 17 of gestation; read-out: NOAEL for maternal toxicity
Attribute Measured: NOAEL (mg/kg)

molecular_string=CN(CCC(=O)O)C(=O)c1ccc2c(c1)CC[C@@H]1[C@@H]2CC[C@]2(C)C(c3cncc(F)c3)=CC[C@@H]12 attribute_measured=NOAEL uom=mg/kg value_measured=60

###

Assay: Embryonic (embryo-fetal) development study in rats
Assay type: in vivo
Conditions: female, rat, in vivo, po, pregnant rats, oral gavage once daily, Day 6 to Day 17 of gestation; doses 0, 5, 17, 60 mg/kg; read-out: NOAEL for dev. toxicity
Attribute Measured: NOAEL

molecule="CN(CCC(=O)O)C(=O)c1ccc2c(c1)CC[C@@H]1[C@@H]2CC[C@]2(C)C(c3cncc(F)c3)=CC[C@@H]12 [AKR1C3 inhibitor]" attribute_measured=NOAEL value_measured="17 mg/kg"
